# assay system: rat MAO-B (Rattus norvegicus, UniProt P19643)
# Construct: from tissue; host or cells: rat liver mitochondria (male Sprague-Dawley rats)
# Sequence (P19643 whole entry): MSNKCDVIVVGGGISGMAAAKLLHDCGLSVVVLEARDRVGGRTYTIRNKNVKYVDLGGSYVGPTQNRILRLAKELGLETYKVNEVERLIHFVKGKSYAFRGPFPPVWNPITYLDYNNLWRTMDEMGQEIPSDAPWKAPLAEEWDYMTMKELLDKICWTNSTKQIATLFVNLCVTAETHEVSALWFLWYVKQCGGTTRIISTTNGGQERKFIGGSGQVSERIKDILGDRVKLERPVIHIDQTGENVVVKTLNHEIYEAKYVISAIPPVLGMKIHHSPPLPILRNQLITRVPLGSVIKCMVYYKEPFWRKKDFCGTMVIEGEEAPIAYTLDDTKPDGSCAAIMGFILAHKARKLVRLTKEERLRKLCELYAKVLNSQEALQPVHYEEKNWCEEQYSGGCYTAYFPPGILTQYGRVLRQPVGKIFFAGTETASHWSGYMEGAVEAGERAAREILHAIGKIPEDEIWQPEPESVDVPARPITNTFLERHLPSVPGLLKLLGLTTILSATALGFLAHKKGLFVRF
# protocol details: Rat MAO-B assay (Amplex Red fluorescence, rat liver mitochondria pre-treated with clorgyline 30 nM)
# Assay type: biochemical
Overview of reported IC50 across a group of molecules:

[
  {
    "molecule": "Fc1cc(/N=C/c2ccc3[nH]ncc3c2)ccc1Cl [Example 23]",
    "IC50": "25.2 nM"
  }
]

Request: Which value of IC50 has been reported for Clc1cc(/N=C/c2ccc3[nH]ncc3c2)cnc1Cl [Example 25] in the records?
Response: 1.48 nM

Request: Try the molecule Fc1ccc(/N=C/c2ccc3[nH]ncc3c2)cc1Cl [Example 24]
Response: 6.08 nM

FYI, the data here is from patent US9643930B2.
